- ASSAY REMARKS: The compound was tested for time of peak effect (TPE) in hours for its toxicity in mice on ip administration.
- Type: organism-based
- ASSAY CONTEXT: mouse, in vivo
Reported Toxicity is given for each of the following molecules.
READOUT LABEL: Toxicity (h)

# CHEM SMILES, OUTPUT UNIT, MEASURED NUMBER
measured = [
    ("CCC(=O)c1ccc2c(c1)sc(=O)n2CCN1CCOCC1", "h", 0.25),
    ("O=c1oc2cc(Cc3ccccc3)ccc2n1CCN1CCOCC1", "h", 1),
    ("O=C(c1ccccc1)c1ccc2c(c1)sc(=O)n2CCN1CCCC1", "h", 0.25),
    ("CCCCC(=O)c1ccc2c(c1)sc(=O)n2CCN(C)C", "h", 0.25),
]
